The entries that follow carry Ki values tested on Vascular endothelial growth factor receptor 2 (Homo sapiens, UniProt P35968), drawn from several published reports.
Sequence (P35968 whole entry): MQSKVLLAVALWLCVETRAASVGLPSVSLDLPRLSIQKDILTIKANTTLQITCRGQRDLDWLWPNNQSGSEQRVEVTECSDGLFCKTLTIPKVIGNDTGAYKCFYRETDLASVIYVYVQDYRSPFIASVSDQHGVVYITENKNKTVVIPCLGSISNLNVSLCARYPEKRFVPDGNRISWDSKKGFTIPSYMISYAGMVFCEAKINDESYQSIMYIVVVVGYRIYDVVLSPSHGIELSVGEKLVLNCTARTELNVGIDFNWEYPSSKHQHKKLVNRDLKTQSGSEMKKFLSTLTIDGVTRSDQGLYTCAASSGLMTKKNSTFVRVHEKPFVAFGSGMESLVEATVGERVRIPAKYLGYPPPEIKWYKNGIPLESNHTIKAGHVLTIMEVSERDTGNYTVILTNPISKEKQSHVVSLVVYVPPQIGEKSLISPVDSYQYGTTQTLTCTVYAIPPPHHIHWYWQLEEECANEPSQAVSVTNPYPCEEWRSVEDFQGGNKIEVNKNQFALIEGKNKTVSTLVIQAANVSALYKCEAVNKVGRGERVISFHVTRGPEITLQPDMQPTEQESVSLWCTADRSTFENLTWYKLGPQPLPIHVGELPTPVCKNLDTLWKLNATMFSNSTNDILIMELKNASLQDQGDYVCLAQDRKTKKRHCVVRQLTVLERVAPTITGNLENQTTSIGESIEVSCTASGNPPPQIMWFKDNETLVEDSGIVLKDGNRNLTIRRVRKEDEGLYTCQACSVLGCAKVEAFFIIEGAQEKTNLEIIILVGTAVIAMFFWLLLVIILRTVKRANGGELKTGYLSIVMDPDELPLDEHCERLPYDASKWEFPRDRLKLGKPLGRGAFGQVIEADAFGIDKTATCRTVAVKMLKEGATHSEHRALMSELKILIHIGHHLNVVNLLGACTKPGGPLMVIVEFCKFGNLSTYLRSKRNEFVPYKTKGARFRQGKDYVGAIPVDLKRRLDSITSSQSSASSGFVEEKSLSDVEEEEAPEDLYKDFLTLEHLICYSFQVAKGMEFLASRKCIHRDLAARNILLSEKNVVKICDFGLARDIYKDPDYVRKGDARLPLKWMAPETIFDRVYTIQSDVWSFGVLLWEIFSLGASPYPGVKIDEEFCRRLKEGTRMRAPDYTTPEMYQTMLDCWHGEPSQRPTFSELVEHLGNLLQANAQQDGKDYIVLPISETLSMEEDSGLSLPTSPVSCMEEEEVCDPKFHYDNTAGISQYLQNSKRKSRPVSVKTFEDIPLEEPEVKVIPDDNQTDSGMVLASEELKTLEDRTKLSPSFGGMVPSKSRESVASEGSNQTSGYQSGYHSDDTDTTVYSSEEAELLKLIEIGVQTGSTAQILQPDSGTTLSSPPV

{"molecule": "COc1cc2nccc(Oc3ccc(-c4cnc(Cc5ccccc5)n(C)c4=O)cc3F)c2cc1OC", "Ki": "> 1.3 µM"}
{"molecule": "Fc1ccc(-c2ncn(C3CCN(Cc4ccccc4)C3)c2-c2ccc3[nH]ncc3c2)cc1 (stereo not given)", "Ki": "> 8.88 µM"}
{"molecule": "COc1ccc(CNc2ccnc3oc4ccccc4c23)cc1", "Ki": "> 1000 µM"}
{"molecule": "Clc1cc(Cl)cc(Cn2cc(-c3ccc4[nH]ncc4c3)nn2)c1", "Ki": "> 0.915 µM"}
{"molecule": "c1ccc(CCCc2cn(-c3ccc4[nH]ncc4c3)nn2)cc1", "Ki": "> 8.88 µM"}

* * *

The following compounds were reported with Ki values on Vascular endothelial growth factor receptor 2 (Homo sapiens, UniProt P35968) in different studies.
assay-metric: Ki

{"chemical-structure": "COC(C)(C)CCn1nc(Nc2c(C)cccc2C)c2cnc(Nc3ccc(OCCN4CCCC4)c(F)c3)nc21", "result-value": "> 12.5 µM"}
{"chemical-structure": "COc1ccc2c(Oc3ccc(NC(=O)c4c([C@@H]5CCCN5)n(C)n(-c5ccccc5)c4=O)nc3)ccnc2c1", "result-value": "> 6.6 µM"}
{"chemical-structure": "COc1cc2c(Oc3ccc(-c4cnc(Cc5ccc(F)cc5)n(C)c4=O)cc3F)ccnc2cc1OCCCN1CCOCC1", "result-value": "> 3 µM"}
{"chemical-structure": "c1ccc(-c2c(-c3ccc4[nH]ncc4c3)nc3ncccn23)cc1", "result-value": "> 8.88 µM"}
{"chemical-structure": "COc1cc2c(N[C@@H]3C[C@H]3c3ccccc3)c(C#N)cnc2cc1OC1CCN(C)CC1", "result-value": "> 10 µM"}
{"chemical-structure": "Fc1ccc(-c2ncn(CCCN3CCOCC3)c2-c2ccc3[nH]ncc3c2)cc1", "result-value": "> 8.88 µM"}
{"chemical-structure": "Cc1nc(NC(=O)NCCc2cn(CC(F)F)cn2)sc1C#Cc1cccnc1", "result-value": "> 4 µM"}
{"chemical-structure": "COc1ccc2c(Oc3ccc(NC(=O)c4c(-c5ccncc5)n(C)n(-c5ccccc5)c4=O)nc3)ccnc2c1", "result-value": "> 6.6 µM"}
{"chemical-structure": "c1ccc(CNc2nc(-c3ccc4[nH]ncc4c3)c(-c3ccccc3)s2)cc1", "result-value": "> 8.88 µM"}
{"chemical-structure": "N#Cc1cnc2ccc(-c3ccc(CN4CCOCC4)cc3)cc2c1N[C@@H]1C[C@H]1c1ccccc1", "result-value": "> 10 µM"}
{"chemical-structure": "CCCCNc1c(-c2ccc3[nH]ncc3c2)nc2ncccn12", "result-value": "> 8.88 µM"}
{"chemical-structure": "COc1cc(C#Cc2sc(NC(=O)NCCOCC3CC3)nc2C)cnc1OC", "result-value": "> 4 µM"}
{"chemical-structure": "Cc1nc(-c2ccc3[nH]ncc3c2)cs1", "result-value": "> 8.88 µM"}
{"chemical-structure": "CCCc1cn(-c2ccc3[nH]ncc3c2)nn1", "result-value": "> 8.88 µM"}
{"chemical-structure": "N#Cc1cnc2ccc(-c3cccc(CN4CCOCC4)c3)cc2c1N[C@@H]1C[C@H]1c1ccccc1", "result-value": "> 10 µM"}
{"chemical-structure": "Fc1ccccc1Cn1cc(-c2ccc3[nH]ncc3c2)nn1", "result-value": "> 0.915 µM"}
